Entry source: patent US20260242478A1

# Target Desc: T1, 006 PSMA Fab
# T1 construct: In the phage ELISA the Fab was biotinylated and captured on neutravidin coated plates; also called Anti-PSMA Fab
# Assay Name: clonal phage ELISA on biotinylated PSMA Fab captured on neutravidin, anti-M13 HRP detection, no competitor
Parameter Measured: Phage binding ELISA signal, Anti-PSMA Fab

# Binder, Result
records = [
    ("LSHMCRPAWMCEGF [Phage-3068]", 2.13),
    ("LLAECVAAWMCSGF [Phage-3067]", 2.13),
    ("VVPMCSPSWMCQGF [Phage-3064]", 2.14),
    ("EEKMCVPLWMCSGF [Phage-3060]", 2.15),
    ("ISPVCIPSWMCLGL [Phage-3069]", 2.13),
    ("ITKACIPEWMCHAF [Phage-3061]", 2.15),
    ("VQVLCVPSWMCHGF [Phage-3062]", 2.15),
    ("SPYFCIPAWMCHGF [Phage-3071]", 2.13),
    ("VERSCVPSWMCYGF [Phage-3066]", 2.14),
    ("GMVRCVPQWMCVGF [Phage-3065]", 2.14),
    ("VEIQCRPSWMCMGF [Phage-3063]", 2.14),
    ("IMMRCEPVWMCEGF [Phage-3072]", 2.13),
    ("WLMRCEPQWMCAGF [Phage-3073]", 2.12),
    ("LEKACVPQWMCYGL [Phage-3070]", 2.13),
]
